This section presents compounds with their documented log10(IC50) values.
System: NCI-H460
measurement-protocol: Cytotoxicity against human H460 cell line by MTS assay
Format: functional, cell-based
Form field - Quantity: IC50; Unit: µM; Scale: log10

C/N=C(\S)N(C)CCNc1c2ccccc2nc2c(C(=O)NCCCCNC(=O)Nc3ccccc3)cccc12 0.49
CNC(=S)N(C)CCNc1c2ccccc2nc2ccccc12 0.98
C/N=C(\S)N(C)CCNc1c2ccccc2nc2c(C(=O)NCCO)cccc12 1.61
C/N=C(\S)N(C)CCNc1c2ccccc2nc2c(C(=O)NCCN(C)C)cccc12 0.34
C/N=C(\S)N(C)CCNc1c2ccccc2nc2c(C(=O)NCCNC(=O)Nc3ccccc3)cccc12 1.50

Turning now to a further compound:
Look up log10(IC50) for this compound: C/N=C(\S)N(C)CCNc1c2ccccc2nc2c(C(=O)NCCOC(C)=O)cccc12
1.25
